Each entry below lists one item and its recorded pIC50 value.
Tested on: saphenous artery rings
assay: Vasorelaxant effect in vitro (phenylephrine-contracted artery rings)
Format: cell-based
measurement context: Oryctolagus cuniculus, rabbit saphenous artery rings, contraction induced by phenylephrine
Quick note: pIC50 means taking -log10 of the concentration in moles per liter.

• CC(C)(C)c1ccc(COc2ccccc2/C=C/C(CCc2ccc(C(=O)O)cc2)Cc2ccc(-c3n[nH]c(=O)[nH]3)cc2)cc1 (stereo not drawn) = 7.13
• CC(C)(C)c1ccc(COc2ccccc2/C=C/C(CCc2ccc(C(=O)O)cc2)Cc2ccc(-c3noc(=O)[nH]3)cc2)cc1 (single isomer, unassigned) = 6.58

What does the record list as pIC50 for CC(C)(C)c1ccc(COc2ccccc2/C=C/C(CCCCC(=O)O)CCc2ccc(-c3noc(=O)[nH]3)cc2)cc1 (single isomer, unassigned) ? 6.05

---

Each entry below lists one item and its recorded IC50 value.
Test system: saphenous artery rings
assay: Vasorelaxant effect in vitro (phenylephrine-contracted artery rings)
Assay type: cell-based
measurement context: Oryctolagus cuniculus, rabbit saphenous artery rings, contraction induced by phenylephrine
Hi! Could you send only the number? It should be in nM, unit omitted.

As a guide, the following entries are already answered.
- CCCCCOc1ccccc1/C=C/C(CCc1ccc(C(=O)O)cc1)Cc1ccc(-c2noc(=O)[nH]2)cc1 (single isomer, unassigned): 390
- O=C(O)c1ccc(CCC(/C=C\c2ccccc2OCc2ccc(-c3ccc(C(F)(F)F)cc3)cc2)Cc2ccc(-c3noc(=O)[nH]3)cc2)cc1 (single isomer, unassigned): 714
- CC(C)(C)c1ccc(COc2ccccc2/C=C/C(CCc2ccc(C(=O)O)cc2)Cc2ccc(-c3n[nH]c(=O)o3)cc2)cc1 (single isomer, unassigned): 13

Attention now turns to another entry.
Lab note: need IC50 for CC(C)(C)c1ccc(COc2ccc(F)cc2/C=C/C(CCc2ccc(-c3noc(=O)[nH]3)cc2)Cc2ccc(C(=O)O)cc2)cc1 (single isomer, unassigned) on saphenous artery rings, anyone have it? 505

---

Test system: saphenous artery rings
assay: Vasorelaxant effect in vitro (phenylephrine-contracted artery rings)
Type: cell-based
measurement context: Oryctolagus cuniculus, rabbit saphenous artery rings, contraction induced by phenylephrine
endpoint name: pIC50
Quick note: pIC50 means taking -log10 of the concentration in moles per liter.

- CCCCCCOc1ccccc1/C=C/C(CCc1ccc(C(=O)O)cc1)Cc1ccc(-c2noc(=O)[nH]2)cc1 (single isomer, unassigned): 6.39

What does the record list as pIC50 for COc1ccc(CCc2ccc(F)cc2/C=C/C(CCc2ccc(-c3noc(=O)[nH]3)cc2)Cc2ccc(C(=O)O)cc2)cc1 (single isomer, unassigned) ? 6.14

Now give it for CC(C)(C)c1ccc(COc2ccccc2/C=C/C(CCc2ccc(C(=O)O)cc2)Cc2ccc(-c3n[nH]c(N)n3)cc2)cc1 (stereo not drawn) too. 6.37

---

Tested on: saphenous artery rings
assay: Vasorelaxant effect in vitro (phenylephrine-contracted artery rings)
Assay type: cell-based
measurement context: Oryctolagus cuniculus, rabbit saphenous artery rings, contraction induced by phenylephrine
Threshold 500 nM. IC50 below it: condition met. IC50 at it or above: condition not met.

* O=C(O)c1ccc(CCC(/C=C\c2ccccc2OC(F)(F)F)Cc2ccc(-c3noc(=O)[nH]3)cc2)cc1 (single isomer, unassigned) | condition not met

Is it true that IC50 reported for CC(C)(C)c1ccc(COc2ccccc2/C=C/C(CCCCC(=O)O)Cc2ccc(-c3n[nH]c(=O)o3)cc2)cc1 (stereo not drawn) is less than 500 nM? condition met

Now give it for `O=C(O)c1ccc(CN(CCc2ccc(-c3noc(=O)[nH]3)cc2)CCc2ccccc2OCc2ccc(-c3ccc(C(F)(F)F)cc3)cc2)cc1` too. condition met

Now give it for CC(C)(C)c1ccc(COc2ccccc2/C=C/C(CCc2ccc(-c3n[nH]c(=S)[nH]3)cc2)Cc2ccc(C(=O)O)cc2)cc1 (stereo not drawn) too. condition not met

Now give it for CC(C)(C)c1ccc(COc2ccccc2/C=C/C(CCCCC(=O)O)CCc2ccc(-c3n[nH]c(=O)o3)cc2)cc1 (stereo not drawn) too. condition met
